The reported measurements were obtained from patent US20240174680A1.

Listed here are compounds together with their documented pIC50.
- tested-system: CDK2/Cyclin E1 (Homo sapiens)
- experiment: HotSpot kinase inhibition assay (radiometric, Histone H1 substrate)
- Assay type: biochemical
- measurement-conditions: 10 μM ATP, read-out: Kinase Assay (CDK2/CCNE): IC50
pIC50: −log10 of the molar value.

Illustrative cases are given below, each with its answer.
CNC(=O)[C@@H](NC(=O)[C@@H]1CN(C(=O)c2cnn(Cc3ccccc3)c2)CC12CN(C(=O)C1CC(C)(C)C1)C2)[C@@H](C)OCc1ccccc1 :: 4.00 to 5.00
CC1(C)C[C@@H]1C(=O)N1CC2(CN(C(=O)c3cnn(Cc4ccccc4)c3)C[C@H]2C(=O)N2CC[C@H](OCC3CCCCC3)C2)C1 :: 5.00 to 6.00
CC1(C)C[C@@H]1C(=O)N1CC2(CN(C(=O)c3cnn(Cc4ccccc4)c3)C[C@H]2C(=O)N2CCN(CC3CCCCC3)C(=O)C2)C1 :: 5.00 to 6.00

As a next step, examine the compound that follows.
Ask: Requested read-out pIC50, target or system CDK2/Cyclin E1 (Homo sapiens), entry CNC(=O)[C@@H](NC(=O)C1CN(C(=O)c2cnn(Cc3ccccc3)c2)CC12CN(C(=O)C1CC1(C)C)C2)[C@@H](C)OCc1cccc(C#N)c1 (stereo partly shown)
Reply: < 4.00

====

Listed here are compounds together with their documented pIC50.
- tested-system: CDK2/Cyclin E1 (Homo sapiens)
- experiment: CDK2/Cyclin E1 Caliper LabChip EZ Reader mobility shift assay
- Type: biochemical
- Set-up: purchased Eurofins 14-475
- measurement-conditions: read-out: Caliper Assay (CDK2/CCNE1): IC50
pIC50: −log10 of the molar value.

Illustrative cases are given below, each with its answer.
CNC(=O)[C@@H](NC(=O)[C@H]1CN(C(=O)c2cnn(Cc3ccccc3)c2)CC12CN(C(=O)C1(CCOC)CC1)C2)[C@@H](C)OCc1ccccc1 [I-102B] :: < 5.00
CNC(=O)[C@@H](NC(=O)[C@@H]1CN(C(=O)c2cnn(Cc3ccccc3)c2)CC12CN(C(=O)[C@H]1CC1(C)C)C2)[C@@H](C)N(CC1CCCCC1)C(C)=O :: < 5.00
C[C@@H](OCc1ccccc1)[C@H](NC(=O)C1CN(C(=O)c2cnn(Cc3ccccc3)c2)CC12CN(C(=O)[C@H]1CC1(C)C)C2)C(=O)NCCN (stereo partly drawn) :: 6.00 to 7.00
C[C@@H](OCC12CCC(CC1)OC2)[C@H](NC(=O)[C@@H]1CN(C(=O)c2cncs2)CC12CN(C(=O)C(C)(C)C1CC1)C2)C(C)(C)O :: 6.00 to 7.00
CNC(=O)[C@@H](NC(=O)[C@@H]1CN(C(=O)c2cnn(Cc3ccccc3)c2)CC12CN(CC(=O)O)C2)[C@@H](C)OCC1CCCCC1 :: < 5.00
COCCNC(=O)[C@@H]1CN(C(=O)c2cnn(Cc3ccccc3)c2)CC12CN(C(=O)[C@H]1CC1(C)C)C2 [I-122A] :: < 5.00
C[C@@H](OCc1ccccc1)[C@H](NC(=O)C1CN(C(=O)c2cnn(Cc3ccccc3)c2)CC12CN(C(=O)[C@H]1CC1(C)C)C2)C(=O)NCCO (stereo partly drawn) :: 7.00 to 8.00
C[C@@H](OCC1CCCCC1)[C@H](NC(=O)[C@@H]1CN(C(=O)c2cnn(Cc3ccccc3)c2)CC12CN(C(=O)[C@H]1CC1(C)C)C2)C(=O)N1CCC(c2ncc[nH]2)CC1 :: ≥ 8.00

Ask: # pIC50 lookup, item CNC(=O)[C@@H](CO)NC(=O)C1CN(C(=O)c2cnn(Cc3ccccc3)c2)CC12CN(C(=O)[C@H]1CC1(C)C)C2 (stereo partly drawn)
Reply: < 5.00

Ask: Same lookup for C[C@@H](OCC1CCC(F)(F)CC1)[C@H](NC(=O)[C@@H]1CN(C(=O)c2cncs2)CC12CN(C(=O)C(C)(C)C1CC1)C2)C(=O)N1CCC(O)CC1 , please.
Reply: ≥ 8.00

Ask: Same lookup for Cc1nc(C)c(C(=O)N2C[C@@H](C(=O)N[C@H](C(=O)N3CCC(C(F)(F)F)CC3)[C@@H](C)OCC34CCC(CC3)OC4)C3(C2)CN(C(=O)[C@H]2CC2(C)C)C3)s1 , please.
Reply: ≥ 8.00

Ask: Same lookup for CNC(=O)[C@@H](NC(=O)[C@H]1CN(C(=O)c2scnc2C(F)(F)F)CC12CN(C(=O)[C@H]1CC1(C)C)C2)[C@@H](C)OCC1CCCCC1 [I-163B] , please.
Reply: < 5.00

====

- tested-system: CDK2/Cyclin E1 (Homo sapiens, UniProt P24941)
- experiment: CDK2/Cyclin E1 Caliper LabChip EZ Reader mobility shift assay
- Assay type: biochemical
- Set-up: purchased Eurofins 14-475
- measurement-conditions: read-out: Caliper Assay (CDK2/CCNE1): IC50
- Procedure: Inhibition of CDK2/Cyclin E1 activity in the presence of compounds of the present disclosure was evaluated using a Caliper LabChip® EZ Reader mobility shift assay. […] The peptide substrate and product were measured, and the conversion ratio was used to determine the inhibition (as % activity and IC50 values) of CDK2/Cyclin E1. […]
pIC50: −log10 of the molar value.
parameter: pIC50

C[C@@H](OCc1ccc(Cl)cc1)[C@@H](CO)NC(=O)[C@@H]1CN(C(=O)c2cncs2)CC12CN(C(=O)[C@H]1CC1(C)C)C2 :: 7.00 to 8.00

Ask: Requested read-out pIC50, target or system CDK2/Cyclin E1 (Homo sapiens, UniProt P24941), entry CNC(=O)[C@@H](NC(=O)[C@@H]1CN(C(=O)c2cnn(Cc3ccccc3)c2)CC12CN(C(=O)C1(CCOC)CC1)C2)[C@@H](C)OCc1ccccc1 [I-102A]
Reply: < 5.00

Ask: Same lookup for COC[C@H]1CCCN(C(=O)[C@@H](NC(=O)[C@@H]2CN(C(=O)c3cncs3)CC23CN(C(=O)[C@H]2CC2(C)C)C3)[C@@H](C)OC[C@H]2CC[C@@H](OC)CC2)C1 , please.
Reply: 7.00 to 8.00

Ask: Same lookup for CNC(=O)[C@@H](NC(=O)[C@@H]1CN(C(=O)c2cncs2)CC12CN(CC1CCCO1)C2)[C@@H](C)OCC1CCCCC1 (some centres unmarked) , please.
Reply: < 5.00

Ask: Same lookup for CNC(=O)[C@@H](NC(=O)[C@@H]1CN(C(=O)c2cnn(Cc3ccccc3)c2)CC12CN(C(=O)C(C)(C)F)C2)[C@@H](C)OCc1ccccc1 [I-90A] , please.
Reply: 6.00 to 7.00

Ask: Same lookup for COC[C@H]1CCCN(C(=O)[C@@H](NC(=O)[C@@H]2CN(C(=O)c3cncs3)CC23CN(C(=O)[C@H]2CC2(C)C)C3)[C@@H](C)OC[C@H]2CC[C@H](OC)CC2)C1 , please.
Reply: 7.00 to 8.00

Ask: Same lookup for CC1(C)C[C@@H]1C(=O)N1CC2(CN(C(=O)c3cnn(Cc4ccccc4)c3)C[C@H]2C(=O)N2CCO[C@@H](Cc3ccccc3)C2)C1 , please.
Reply: < 5.00

Ask: Same lookup for C[C@@H](OCC1CCOCC1)[C@@H](COC1CCC(F)(F)CC1)NC(=O)[C@@H]1CN(C(=O)c2cncs2)CC12CN(C(=O)C(C)(C)C1CC1)C2 , please.
Reply: 7.00 to 8.00

Ask: Same lookup for CNC(=O)[C@@H](NC(=O)[C@@H]1CN(C(=O)c2cnn(Cc3ccccc3)c2)CC12CN(C(=O)C1(C3CC3)CC1)C2)[C@@H](C)OCc1ccccc1 [I-114A] , please.
Reply: 6.00 to 7.00

====

Listed here are molecules together with their documented IC50.
- tested-system: CDK2/Cyclin E1 (Homo sapiens, UniProt P24941)
- experiment: CDK2/Cyclin E1 Caliper LabChip EZ Reader mobility shift assay
- Type: biochemical
- Set-up: purchased Eurofins 14-475
- measurement-conditions: read-out: Caliper Assay (CDK2/CCNE1): IC50

C[C@@H](OCC12CCC(CC1)OC2)[C@H](NC(=O)[C@@H]1CN(C(=O)c2cncs2)CC12CN(C(=O)[C@H]1CC1(C)C)C2)C(=O)N1CCC2(CC1)COC2 [I-336] :: ≤ 10 nM
C[C@@H](OCC1CCC(F)(F)CC1)[C@H](NC(=O)[C@H]1CN(C(=O)c2cn[nH]c2)CC12CN(C(=O)[C@H]1CC1(C)C)C2)C(=O)N1CCC(F)(F)CC1 [I-228B] :: 100 to 1000 nM
C[C@@H](OCc1ccccc1)[C@H](NC(=O)C1CN(C(=O)c2cnn(Cc3ccccc3)c2)CC12CN(C(=O)[C@H]1CC1(C)C)C2)C(=O)N1CCC(F)(F)CC1 (some centres unmarked) [I-85] :: 10 to 100 nM
CNC(=O)[C@@H](NC(=O)[C@H]1CN(Cc2ccccn2)CC12CN(C(=O)[C@H]1CC1(C)C)C2)[C@@H](C)OCc1ccccc1 [I-40B] :: > 10000 nM
CNC(=O)[C@@H](NC(=O)[C@H]1CN(C(=O)c2cnn(Cc3ccccc3)c2)CC12CN(C(=O)C(C)(C)C)C2)[C@@H](C)OCc1ccccc1 [I-65B] :: > 10000 nM

Ask: # IC50 lookup, item CNC(=O)[C@@H](NC(=O)[C@@H]1CN(C(=O)c2cnc(C)s2)CC12CN(C(=O)[C@H]1CC1(C)C)C2)[C@@H](C)OCC1CCCCC1 [I-156A]
Reply: 10 to 100 nM

Ask: Same lookup for CNC(=O)[C@@H](NC(=O)[C@H]1CN(Cc2cnc[nH]2)CC12CN(C(=O)[C@H]1CC1(C)C)C2)[C@@H](C)OCc1ccccc1 [I-77B] , please.
Reply: > 10000 nM

Ask: Same lookup for C[C@@H](OCC1CCC(F)(F)CC1)[C@H](NC(=O)[C@@H]1CN(C(=O)c2cncs2)CC12CN(C(=O)[C@H]1CC1(C)C)C2)C(=O)N1CCC(CO)CC1 [I-397] , please.
Reply: ≤ 10 nM

Ask: Same lookup for CNC(=O)[C@@H](NC(=O)[C@H]1CN(C(=O)c2cnn(Cc3ccccc3)c2)CC12CN(C(=O)C(C)(C)F)C2)[C@@H](C)OCc1ccccc1 [I-90B] , please.
Reply: > 10000 nM

Ask: Same lookup for CNC(=O)[C@@H](NC(=O)[C@@H]1CN(C(=O)c2cnn(Cc3ccccc3)c2)CC12CN(C(=O)[C@H]1CC1(C)C)C2)[C@@H](C)OCC1CCCCC1 [I-123A] , please.
Reply: ≤ 10 nM

Ask: Same lookup for C[C@@H](OCC1CCCCC1)[C@H](NC(=O)[C@@H]1CN(C(=O)c2ccn[nH]2)CC12CN(C(=O)[C@H]1CC1(C)C)C2)C(=O)N1CCCCC1 [I-216] , please.
Reply: 100 to 1000 nM

Ask: Same lookup for CNC(=O)[C@@H](NC(=O)[C@H]1CN(C(=O)c2cnn(Cc3ccccc3)c2)CC12CN(C(=O)CC(C)(C)C)C2)[C@@H](C)OCc1ccccc1 [I-62B] , please.
Reply: > 10000 nM

Ask: Same lookup for CNC(=O)[C@@H](NC(=O)C1CN(C(=O)c2cnn(CC3CCCCC3)c2)CC12CN(C(=O)C1CC1(C)C)C2)[C@@H](C)OCc1ccccc1 (some centres unmarked) [I-10] , please.
Reply: 100 to 1000 nM

Ask: Same lookup for CC1(C)C[C@@H]1C(=O)N1CC2(CN(C(=O)c3cnn(Cc4ccccc4)c3)C[C@H]2C(=O)N2CCC[C@H](OCC3CCCCC3)C2)C1 [I-236] , please.
Reply: 1000 to 10000 nM
